Assay: Selectivity index, ratio of CC50 for human MT4 cells to EC50 for wild-type HIV-1 infected in human MT4 cells
Format: toxicity, cell-based
Details: uninfected and infected with wild-type HIV-1, read-out: Ratio CC50/EC50
readoutLabel: selectivity ratio
The reply should be a number, written without any unit.

Name the recorded selectivity ratio of the compound listed here: `O=C(CSc1nnsc1-c1cccc2ccccc12)Nc1cccnc1Cl` 6440

Name the recorded selectivity ratio of the compound listed here: `O=C(CSc1nnsc1-c1cccc2ccccc12)Nc1ccccc1Br` 3920
